These data points were gathered from the Human Domainome abundance scans (Beltran et al. 2025).

B1: E3 ubiquitin-protein ligase NEDD4-like, residues 539 to 589; numbered along this chain, Q96PU5 (parent)
chain: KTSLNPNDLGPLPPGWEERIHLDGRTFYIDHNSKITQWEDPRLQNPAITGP

variants of: B1; assay: abundance fitness (aPCA) (normalised: wild type 0, dead -1); higher = more abundant; growth selection in yeast, the domain comes from the species named; settings: Homo sapiens

[
  {
    "Mutation list": "P11H",
    "abundance fitness": -0.586
  },
  {
    "Mutation list": "L4H",
    "abundance fitness": -0.242
  },
  {
    "Mutation list": "W38T",
    "abundance fitness": 0.058
  }
]
